Recorded T/C for the following molecules
# System: CD2F1 mice, L1210 leukemia ip, survival T/C
# assay_info: NCI In Vivo Anticancer Drug Screen. Data for tumor model L1210 Leukemia (intraperitoneal) in CD2F1 (CDF1) mice
# condition_label: endpoint: mean survival time; dose: 400.0 mg/kg/injection; schedule: Q01DX009 (ip); vehicle: saline; higher = longer survival
Toxic doses and inconclusive results are not listed.

Illustrative cases are given below, each with its answer.
For record CC(C)=CC1C(C(=O)OCc2ccc(C)cc2C)C1(C)C (centres undefined) the listed T/C is 102 % of control

For record OC1C2COC(O2)C(O)C1O (centres undefined) (tested in a mixture with another compound) the listed T/C is 91 % of control

---
For record NC(CCc1cc(O)ccc1O)C(=O)O (centres undefined) the listed T/C is 102 % of control

For record `CC(C)(CO)NC(=O)CCO` the listed T/C is 104 % of control

For record NS(=O)(=O)c1ccc(NC2OCC(O)C(O)C2O)cc1 (centres undefined) the listed T/C is 103 % of control

For record CC1(C)OCC(COCc2ccccc2)O1 (centres undefined) the listed T/C is 96 % of control

For record `C[S+](C)C` the listed T/C is 102 % of control

For record NC(COC(c1ccccc1)(c1ccccc1)c1ccccc1)C(=O)O (centres undefined) the listed T/C is 111 % of control

For record `O=S(=O)(F)c1ccc2nc(-c3ccccc3)cc(Cl)c2c1` the listed T/C is 109 % of control
